The measured values listed here are drawn from the EternaBench riboswitch data.

System: MS2 coat protein
Experiment: apparent Kd, MS2 coat protein; higher = weaker binding; RNA-MaP array
Settings: ligand present: flavin mononucleotide; designed as: OFF switch for flavin mononucleotide
Exercise: for every item that follows, state its recorded apparent Kd.
One number for each entry, in nM.

Use the examples below as a reference point.
>>> df
                        biopolymer_sequence  experimental_result
0  AAAUGAGCGCAUCCCUAACAUGAGGAUCACCCAUGUGCUACAGAGGAUAUCGUCACCAUAUCUCACGAGAAGGCUGGUAUAUUG                 11.4
1  GCGAAGCGAGGAUAUUAAUCCGUACACAUGAGGAUCACCCAUGUGAAUCAAUCAUGUGGUUAAGAAGGCGCGUGGG                 73.2
2  UGCCUCCAGCGAGGAUAUAUGUAGAGAUACACCAUAGAAGGCGCUGUAGUGGAACAUGAGGAUCACCCAUGUGACCUCGCCCGG                 17.6
3  UGAGAAGUAGGAUAUAAGUACACCUACAUGAGGAUCACCCAUGUACCUAACGUAGCCGAUUUAGAAGGACUGUCAA                 35.5
4  CUCUACAUGAGGAUCACCCAUGUAUUAAUACAACUGGGUGCUAGAAGGUGCACUUAAGAAUAGGGCAAGGAUAUAGACCGUUCA                 77.4
5  UAUCGGGCAGGAUAUACAUGCGAUUACACUCUUCGGAAAGUACAUGAGGAUCACCCAUGUAGAAGGGCCAAGUG                   11
6  UUCUUUGACGAGAAGGUCUCAACAUGAGGAUCACCCAUGUGAAUUAAUGGAACCAGGCCUGUUUAGAAGGAUAUCGCGGGAGUU                 13.8
7  CCUCGGCCAUCAGGAUAUCAUUCUCCGAUGCGGAACAUGAGGAUCACCCAUGUUGGGUACCCGUGUGAGAAGGGAUGCGUACGG                 62.2
8  UAGCGACAUGAGGAUCACCCAUGUGAGGAUAUGAAGUCUAUAACACAAGCUAAUGAAGACAGAAGGCACAUGAG                 59.3
9  CCGCCUCGCGUCAGGAUAUGUAACAAUUGUCAAAUACAGAAGGGACAUGAGGAUCACCCAUGUUUACAUACCAA                 42.2

Batch of 4 sequences: report apparent Kd for each.
1. GUCGGUGCAGGAUAUCGAGGCGCCAACAUGAGGAUCACCCAUGUGUGUGAUCGGGUGCACCGAGAAGGGCACUUGC
2. CCUCAACAUGAGGAUCACCCAUGUCAGGAUAUCUAGGAGACAUCACAUGCGUCCGAUGAGAGAAGGGACACAGU
3. CAUACGCCGCAGAAGGAGUCGAGUCCGUUUCAACUAGGAUAUGCCAGAACAUGAGGAUCACCCAUGUUGCGGGUGCAGCUCAAU
4. CAUACAUAACAUGAGGAUCACCCAUGUGACUCACUCUGAAAGCAGGAUAUAUUCGGUAAGCUACGAUAGAAGGGCUAUGCGUAA

1. 345
2. 27.5
3. 38.9
4. 31.3

Give apparent Kd (MS2 coat protein) of the following sequence: "GUACCUCAAGGAUAUGCCCGAUCUUACAUGAGGAUCACCCAUGUUGGCUCAGGGCUUAGGGCAGAAGGUGAGAAGU"
7.52
